Attribution: patent US10610520B2

Target: His-hMAGL (recombinant polyhistidine tagged human MAGL protein) (Homo sapiens)
Construct: made in house; host or cells: E. coli BL21(DE3)
Assay: Measurement of MAGL inhibitory activity (arachidonic acid production from 2-arachidonylglycerol, RapidFire-mass spectrometry)
Assay type: biochemical
Conditions: MAGL inhibitory rate, test compound 10 μM, 60 min preincubation, 2-arachidonylglycerol substrate
Examples of compounds with documented inhibition at 10 µM follow.
All answers are understood in %, so give the number only.

| compound | readout_unit | readout_value |
| --- | --- | --- |
| CC(C)c1cccc(-c2ccc3c(Cl)c(C(=O)N4CC5(CCC(=O)N5)C4)sc3c2)c1 | % | 99 |
| O=C1CCC2(CN(C(=O)c3sc4cc(-c5cccc(F)c5Cl)ccc4c3Cl)C2)N1 | % | 100 |

Entry O=C1CCC2(CN(C(=O)c3ccc(-c4ccc(F)c(F)c4F)cc3)C2)N1 — recorded inhibition at 10 µM = 97

Entry Cc1cccc(-c2ccc3c(Cl)c(C(=O)N4CC5(CCC(=O)N5)C4)sc3c2)c1F — recorded inhibition at 10 µM = 100

Entry O=C1CCC2(CN(C(=O)c3sc(-c4ccccc4C(F)(F)F)cc3Cl)C2)N1 — recorded inhibition at 10 µM = 87

Entry O=C1CCC2(CN(C(=O)N3CCC(COc4ccc(C(F)(F)F)cc4Cl)CC3)C2)N1 — recorded inhibition at 10 µM = 102

Entry O=C1NC2(CCN(C(=O)N3CCC(COc4ccc(F)cc4Cl)CC3)C2)CO1 (stereo not shown) — recorded inhibition at 10 µM = 100

Entry CC1(C2CCN(C(=O)N3CC4(CCC(=O)N4)C3)CC2)Cc2ccccc2O1 (stereo not shown) — recorded inhibition at 10 µM = 100

Entry Cc1ccc(-c2ccc3c(Cl)c(C(=O)N4CC5(CCC(=O)N5)C4)sc3c2)c(F)c1 — recorded inhibition at 10 µM = 99

Entry O=C1NC2(CCN(C(=O)c3sc4c(F)c(C(F)(F)F)ccc4c3C(F)F)C2)CO1 (stereo not shown) — recorded inhibition at 10 µM = 99

Entry O=C1NC2(CCN(C(=O)c3sc4c(F)c(OC(F)(F)F)cc(F)c4c3Cl)C2)CO1 (stereo not shown) — recorded inhibition at 10 µM = 100

---

Examples of compounds with documented inhibition at 10 µM follow.
Molecular target: His-hMAGL (recombinant polyhistidine tagged human MAGL protein) (Homo sapiens, UniProt Q99685)
Construct: made in house; host or cells: E. coli BL21(DE3)
Experiment: Measurement of MAGL inhibitory activity (arachidonic acid production from 2-arachidonylglycerol, RapidFire-mass spectrometry)
Format: biochemical
Conditions: MAGL inhibitory rate, test compound 10 μM, 60 min preincubation, 2-arachidonylglycerol substrate
All answers are understood in %, so give the number only.

Entry O=C1NC2(CO1)CN(C(=O)c1sc3ccc(OC(F)(F)F)cc3c1Cl)C2 — recorded inhibition at 10 µM = 101

Entry O=C1CCC2(CN(C(=O)c3sc4cc(-c5ccc(F)cc5F)ccc4c3Cl)C2)N1 — recorded inhibition at 10 µM = 101

Entry O=C1CCC2(CN(C(=O)c3ccc(-c4ccc(C(F)(F)F)cc4Cl)cc3)C2)N1 — recorded inhibition at 10 µM = 96

Entry O=C1CCC2(CN(C(=O)c3sc4cc(-c5cccc(C(F)(F)F)c5)ccc4c3Cl)C2)N1 — recorded inhibition at 10 µM = 99

---

Molecular target: His-hMAGL (recombinant polyhistidine tagged human MAGL protein) (Homo sapiens, UniProt Q99685)
Construct: made in house; host or cells: E. coli BL21(DE3)
Sequence (Q99685 1-303): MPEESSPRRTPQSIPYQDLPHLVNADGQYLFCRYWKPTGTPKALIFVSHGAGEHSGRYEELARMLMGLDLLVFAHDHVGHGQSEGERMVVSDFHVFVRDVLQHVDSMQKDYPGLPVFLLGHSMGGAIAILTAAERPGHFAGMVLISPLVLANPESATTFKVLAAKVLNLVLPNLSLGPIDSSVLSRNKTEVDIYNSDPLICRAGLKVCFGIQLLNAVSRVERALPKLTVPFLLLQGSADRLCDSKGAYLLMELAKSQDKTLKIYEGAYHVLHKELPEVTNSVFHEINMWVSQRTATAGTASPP
Assay: Measurement of MAGL inhibitory activity (arachidonic acid production from 2-arachidonylglycerol, RapidFire-mass spectrometry)
Assay type: biochemical
Conditions: MAGL inhibitory rate, test compound 10 μM, 60 min preincubation, 2-arachidonylglycerol substrate
readout: inhibition at 10 µM

Before answering, review these 8 worked examples.
| molecule | readout_value |
| --- | --- |
| Cc1c(C(=O)N2CC3(CCC(=O)N3)C2)sc2ccc([N+](=O)[O-])cc12 | 93% |
| O=C1CCC2(CN(C(=O)N3CCC(Cc4cc(C(F)(F)F)cc(C(F)(F)F)c4)CC3)C2)N1 | 104% |
| O=C1CCC2(CN(C(=O)c3sc4cc(-c5cccc(OC(F)(F)F)c5)ccc4c3Cl)C2)N1 | 98% |
| O=C1NC2(CCN(C(=O)c3sc4c(F)c(OC(F)(F)F)ccc4c3Cl)C2)CO1 (stereo not shown) | 100% |
| O=C1NC2(CO1)CN(C(=O)c1sc3cccc(C(F)(F)F)c3c1Cl)C2 | 102% |
| O=C1NC2(CO1)CN(C(=O)c1sc3c(Cl)ccc(OC(F)(F)F)c3c1Cl)C2 | 100% |
| O=C1CCC2(CN(C(=O)N3CCN(C(c4ccc(F)cc4)c4ccc(F)cc4)CC3)C2)N1 | 101% |
| O=C1CCC2(CN(C(=O)c3sc4cc(-c5cnc(C(F)(F)F)nc5)ccc4c3Cl)C2)N1 | 97% |

Entry O=C1CCC2(CN(C(=O)N3CCC(Cc4cccc(Cl)c4)CC3)C2)N1 — recorded inhibition at 10 µM = 102%

Entry O=C1CCC2(CN(C(=O)c3ccc(-c4ccc(OC(F)(F)F)cc4)cc3)C2)N1 — recorded inhibition at 10 µM = 96%

Entry O=C1CCC2(CN(C(=O)c3ccc(-c4ccc5c(c4)CCO5)cc3)C2)N1 — recorded inhibition at 10 µM = 94%

Entry O=C1NC2(CO1)CN(C(=O)c1sc3c(F)c(OC(F)(F)F)cc(F)c3c1Cl)C2 — recorded inhibition at 10 µM = 100%

Entry Cc1ccc(-c2ccc(C(=O)N3CC4(CCC(=O)N4)C3)cc2)c(Cl)c1 — recorded inhibition at 10 µM = 96%

Entry O=C1NC2(CO1)CN(C(=O)c1sc3cc(-c4c(F)cccc4F)ccc3c1Cl)C2 — recorded inhibition at 10 µM = 100%

Entry O=C1CCC2(CN(C(=O)c3ccc4c(ccn4-c4ccc(C(F)(F)F)cn4)c3)C2)N1 — recorded inhibition at 10 µM = 96%

---

Target: His-hMAGL (recombinant polyhistidine tagged human MAGL protein) (Homo sapiens, UniProt Q99685)
Construct: made in house; host or cells: E. coli BL21(DE3)
Assay: Measurement of MAGL inhibitory activity (arachidonic acid production from 2-arachidonylglycerol, RapidFire-mass spectrometry)
Type: biochemical
Details: MAGL inhibitory rate, test compound 10 μM, 60 min preincubation, 2-arachidonylglycerol substrate
readout: inhibition at 10 µM (%)
All answers are understood in %, so give the number only.

Before answering, review these 5 worked examples.
| smiles_string | inhibition at 10 µM (%) |
| --- | --- |
| O=C1NC2(CO1)CN(C(=O)c1sc3cc(C(F)F)cc(C(F)(F)F)c3c1Cl)C2 | 101 |
| O=C1CCC2(CN(C(=O)N3CC(COc4ccc5c(c4)CCC5)C3)C2)N1 | 102 |
| O=C1NC2(CO1)CN(C(=O)c1sc3cccc(Cl)c3c1Cl)C2 | 101 |
| O=C1CCC2(CN(C(=O)c3sc4cc(OC(F)(F)F)ccc4c3C(F)(F)F)C2)N1 | 98 |
| O=C1CCC2(CN(C(=O)c3sc4cc(-c5ccccc5OC(F)(F)F)ccc4c3Cl)C2)N1 | 100 |

Entry O=C1NC2(CO1)CN(C(=O)c1sc3cc(OCC(F)(F)F)ccc3c1Cl)C2 — recorded inhibition at 10 µM = 101

Entry Cc1cc(OC(F)(F)F)cc2sc(C(=O)N3CC4(COC(=O)N4)C3)c(Cl)c12 — recorded inhibition at 10 µM = 101

Entry Cc1c(C(=O)N2CC3(COC(=O)N3)C2)sc2cc(-c3c(F)cccc3F)ccc12 — recorded inhibition at 10 µM = 100

---

Target: His-hMAGL (recombinant polyhistidine tagged human MAGL protein) (Homo sapiens, UniProt Q99685)
Construct: made in house; host or cells: E. coli BL21(DE3)
Assay: Measurement of MAGL inhibitory activity (arachidonic acid production from 2-arachidonylglycerol, RapidFire-mass spectrometry)
Type: biochemical
Details: MAGL inhibitory rate, test compound 10 μM, 60 min preincubation, 2-arachidonylglycerol substrate
Examples of compounds with documented inhibition at 10 µM follow.
All answers are understood in %, so give the number only.

Entry O=C1NC2(CO1)CN(C(=O)c1sc3c(F)c(OC(F)(F)F)ccc3c1Cl)C2 — recorded inhibition at 10 µM = 100

Entry COC(=O)c1ccc(-c2ccc(CC3CCN(C(=O)N4CC5(CCC(=O)N5)C4)CC3)cc2)cc1 — recorded inhibition at 10 µM = 98

Entry O=C1NC2(CO1)CN(C(=O)c1sc3cc(OC(F)(F)F)cc(C(F)F)c3c1Cl)C2 — recorded inhibition at 10 µM = 100

Entry Cc1cc(C(F)(F)F)ccc1-c1ccc(C(=O)N2CC3(CCC(=O)N3)C2)cc1 — recorded inhibition at 10 µM = 96

Entry O=C1CCC2(CN(C(=O)c3ccc(-c4ccc(Cl)c(C(F)(F)F)c4)cc3)C2)N1 — recorded inhibition at 10 µM = 99

Entry O=C1CCC2(CN(C(=O)c3ccc4scc(-c5ccc(F)cc5)c4c3)C2)N1 — recorded inhibition at 10 µM = 88

Entry O=C1CCC2(CN(C(=O)c3ccc(-c4cc(F)c(F)cc4F)cc3)C2)N1 — recorded inhibition at 10 µM = 97

Entry O=C1CCC2(CN(C(=O)c3sc4cc(-c5c(F)cccc5F)ccc4c3Cl)C2)N1 — recorded inhibition at 10 µM = 100

Entry O=C1CCC2(CN(C(=O)c3sc4cc(C(F)(F)F)ccc4c3Cl)C2)N1 — recorded inhibition at 10 µM = 104

Entry Cc1c(OC(F)F)cc(F)c2c(Cl)c(C(=O)N3CC4(COC(=O)N4)C3)sc12 — recorded inhibition at 10 µM = 100

Entry O=C1CCC2(CN(C(=O)c3sc4cc(-c5ccc(C(F)(F)F)nc5)ccc4c3Cl)C2)N1 — recorded inhibition at 10 µM = 87

Entry Cc1cc2c(Cl)c(C(=O)N3CC4(COC(=O)N4)C3)sc2cc1OC(F)(F)F — recorded inhibition at 10 µM = 101

Entry O=C1CCC2(CN(C(=O)c3sc4cc(-c5cccc(Cl)c5)ccc4c3Cl)C2)N1 — recorded inhibition at 10 µM = 99

Entry O=C1CCC2(CN(C(=O)c3ccc(-c4cccc(C(F)(F)F)c4F)cc3)C2)N1 — recorded inhibition at 10 µM = 99

Entry O=C1CCC2(CN(C(=O)c3sc4cc(-c5cc(Cl)ccc5F)ccc4c3Cl)C2)N1 — recorded inhibition at 10 µM = 99

Entry O=C1CCC2(CN(C(=O)c3ccc(-c4ccc(C(F)(F)F)cc4)cc3)C2)N1 — recorded inhibition at 10 µM = 98

Entry O=C1NC2(CO1)CN(C(=O)c1ccc(-c3cccc(C4(C(F)(F)F)CC4)c3)c(F)c1)C2 — recorded inhibition at 10 µM = 100
